Molecular target: cAMP and cAMP-inhibited cGMP 3',5'-cyclic phosphodiesterase 10A (Homo sapiens, UniProt Q9Y233)
Sequence (Q9Y233 whole entry): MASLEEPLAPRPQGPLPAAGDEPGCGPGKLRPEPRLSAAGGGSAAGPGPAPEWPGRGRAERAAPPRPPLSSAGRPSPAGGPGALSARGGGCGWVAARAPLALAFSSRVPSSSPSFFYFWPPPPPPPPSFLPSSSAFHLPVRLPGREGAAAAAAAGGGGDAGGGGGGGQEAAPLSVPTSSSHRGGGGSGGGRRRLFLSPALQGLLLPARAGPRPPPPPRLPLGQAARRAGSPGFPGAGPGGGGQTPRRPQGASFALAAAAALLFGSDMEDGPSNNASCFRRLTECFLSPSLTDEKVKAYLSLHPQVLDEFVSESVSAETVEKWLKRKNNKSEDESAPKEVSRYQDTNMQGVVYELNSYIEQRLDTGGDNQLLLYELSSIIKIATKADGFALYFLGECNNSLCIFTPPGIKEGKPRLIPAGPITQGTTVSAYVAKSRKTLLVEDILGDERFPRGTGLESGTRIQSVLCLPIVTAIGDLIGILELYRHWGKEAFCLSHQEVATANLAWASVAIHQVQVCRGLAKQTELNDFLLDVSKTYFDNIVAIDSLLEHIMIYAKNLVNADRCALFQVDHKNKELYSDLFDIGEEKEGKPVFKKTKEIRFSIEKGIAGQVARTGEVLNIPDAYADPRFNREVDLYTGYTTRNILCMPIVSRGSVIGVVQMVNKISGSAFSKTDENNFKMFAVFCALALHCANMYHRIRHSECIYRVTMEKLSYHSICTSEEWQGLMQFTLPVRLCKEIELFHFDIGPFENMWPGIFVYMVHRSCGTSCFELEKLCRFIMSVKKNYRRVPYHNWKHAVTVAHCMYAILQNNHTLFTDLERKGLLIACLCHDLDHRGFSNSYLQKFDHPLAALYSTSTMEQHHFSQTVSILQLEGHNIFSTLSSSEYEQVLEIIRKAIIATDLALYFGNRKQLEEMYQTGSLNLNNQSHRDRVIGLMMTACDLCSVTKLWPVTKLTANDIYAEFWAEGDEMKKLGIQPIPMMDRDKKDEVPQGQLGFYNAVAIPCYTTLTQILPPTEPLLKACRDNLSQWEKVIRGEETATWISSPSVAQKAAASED
Experiment: Activity Assay: A human acute lymphoblastic […] T cell line MOLT-4 (which can be purchased under ATCC No. CRL-1582 from ATCC) was cultured in an RPMI1640 medium containing 10% fetal bovine serum to obtain 5108 MOLT-4 cells. The cells were recovered by centrifugation and suspended in 10 ml of buffer solution A (25 mM Tris-HCl, 5 mM 2-mercaptoethanol, 2 mM benzamidine, 2 mM EDTA, and 0.1 mM 4-(2-aminoethyl)benzenesulfonyl hydrochloride, pH 7.5). The cells were homogenized using a Polytron homogenizer and centrifuged (4° C., 25,000 g, 10 minutes). Then, the supernatant was further ultracentrifuged (4° C., 100,000 g, 60 minutes). The obtained supernatant was filtered through a 0.2um filter to obtain a soluble fraction.HiTrap Q HP column (5 ml2, GE Healthcare Japan Corp.) equilibrated with buffer solution A was charged with the obtained soluble fraction. Phosphodiesterase was eluted with 300 ml of buffer solution A containing a linear gradient solution of 0 to 0.8 M NaCl to recover sixty 5-ml fractions. Each fraction was tested for cAMP-metabolizing phosphodiesterase activity. […] In order to confirm whether or not PDE10A mRNA was expressed in the MOLT-4 cells, total RNA was prepared from the MOLT-4 cells according to a standard method and analyzed by RT-PCR using PDE10A gene-specific primers (PDE10A sense primer: 5'-[…]-3' (SEQ ID NO: 1) and PDE10A antisense primer: 5'-[…]-3' (SEQ ID NO: 2)). As a result, PDE10A mRNA was detected from the total RNA of the MOLT-4 cells. On the other hand, total RNA was prepared from Jurkat cells, one type of human T cell, and similarly subjected to RT-PCR. As a result, PDE10A mRNA was rarely detected. An active peak centered around 250 mM NaCl was not observed in fractions obtained by the treatment of Jurkat cells in the same way as above. Eur J Biochem. 1999, 266 (3), 1118-2 has reported that PDE10A from the rat striatum and testis is eluted as an active peak centered around 250 mM NaCl.
Format: cell-based
Each entry below carries its recorded pIC50.
Give only the number. pIC50 is defined as minus log10 of concentration in molar units.

Reference set, count: 5
{"Smiles Record": "COCc1ccc(C(C)=O)c2sc(C(=O)Nc3cc(N(C)C)c4ccccc4n3)c(C)c12", "pIC50": 9.35}
{"Smiles Record": "COCc1ccc(C(C)=O)c2sc(C(=O)Nc3ccc4c(CN(C)C)cccc4n3)c(C)c12", "pIC50": 8.74}
{"Smiles Record": "COCc1ccc(C(C)=O)c2sc(C(=O)Nc3ccc4c(COC(=O)CCC(=O)O)cccc4n3)c(C)c12", "pIC50": 9.00}
{"Smiles Record": "COCc1ccc(C(C)=O)c2sc(C(=O)Nc3ccc4ccccc4n3)c(C)c12", "pIC50": 8.96}
{"Smiles Record": "COCc1ccc(C(C)=O)c2sc(C(=O)Nc3ccc4c(CN5CC[C@@H](F)C5)cccc4n3)c(C)c12", "pIC50": 8.92}

According to the records, this compound COCc1ccc(C(C)=O)c2sc(C(=O)Nc3ccc4c(C(=O)N5CCN(C)CC5)cccc4n3)c(C)c12 displays pIC50 of 9.51

Data point: COCc1ccc(C(C)=O)c2sc(C(=O)Nc3ccc4c(CN5CCOCC5)cccc4n3)c(C)c12 ; pIC50 = 8.89

---

Molecular target: cAMP and cAMP-inhibited cGMP 3',5'-cyclic phosphodiesterase 10A (Homo sapiens)
Test: Activity Assay: Inhibitory activity-1 assay: To a solution containing 20 mM Tris-HCl (pH 7.5), 1 mM MgCl2, 100 μM EDTA, 330 μg/ml bovine serum albumin, 50 kU/ml 5′-nucleotidase, 0.1 μCi 3H-cAMP (64 nM cAMP), and PDE10A (H-PDE10A2, Human Phosphodiesterase 10A2, Scottish Biomedical), a test compound was added, and the mixture was reacted at 25° C. for 2 hours. To the reaction solution, QAE-Sephadex (17-0190-01, GE Healthcare Japan Corp.) suspended in 10 mM HEPES-Na (pH 7.0) (hereinafter, also referred to as a “QAE-Sephadex suspension”) was added, and the mixture was shaken for 1 minute and left standing for 5 minutes to obtain a supernatant. To the supernatant, a QAE-Sephadex suspension was further added, and the mixture was shaken for 1 minute and left standing for 5 minutes. Then, the obtained supernatant was transferred to LumaPlate (PerkinElmer, Inc.) and assayed using a radiation counter (TopCount NXT, PerkinElmer, Inc.).
Measurement Name: IC50
Reply with a number, then the unit it belongs to.

// sample COCc1ccc(C(C)=O)c2sc(C(=O)Nc3ccc4c(COP(=O)(O)O)cccc4n3)c(C)c12 , its IC50 was 990 pM
